Values compiled from patent US20230212549A1.

Assay: in vivo
Details: swiss nude, mouse, blood pool surrogate (BPS), iv
Numbered stars: 1 amine (or outer) side, 2 acyl side, 3 side chain; on linkers, the order of the positions; unused ones are H or OH. Bridge positions count the residues as written; N and C are the ends. Square brackets hold non-standard residues; d marks the D form. Peptide text beside a SMILES is read from it. * marks the point of attachment. ξ: configuration not given here. X1 = NCCNCC(CNCCN)C(=O)N1CCN(CC(=O)NCCCOCCOCCOCCCN*)CC1; Pyridine(3,5-bisCH2) = c1ncc(C[*:2])cc1C[*:1]; mXylylene = c1cc(C[*:1])cc(C[*:2])c1; Suc = O=C(CCC(=O)[*:2])[*:1]; Nle = CCCC[C@H](N)C(=O)O; ξC = NC(CS)C(=O)O
Measured Parameter: tissue uptake at 3 h
Report the figure along with its unit, number first.

Ask | Query: tissue uptake at 3 h; subject: CCCC[C@H](NC(=O)CCC(=O)NCCCOCCOCCOCCCNC(=O)CN1CCN(C(=O)C(CNCCN)CNCCN)CC1)C(=O)N[C@H]1CSCc2cccc(c2)CSC[C@@H](C(=O)O)NC(=O)[C@H](Cc2ccccc2)NC(=O)[C@H](CCC(=O)O)NC(=O)[C@H]([C@@H](C)O)NC(=O)[C@@H]2CCCN2C(=O)[C@@H]2CCCN2C1=O [3BP-4782] ({X1-Suc}-[Nle]CPPTEFC-OH; linker 2-8 via mXylylene)
Reply | 0.47 %ID/g

Ask | Would you kindly repeat that for CCCC[C@H](NC(=O)CCC(=O)NCCCOCCOCCOCCCNC(=O)CN1CCN(C(=O)C(CNCCN)CNCCN)CC1)C(=O)N[C@H]1CSCc2cncc(c2)CSCC(C(=O)O)NC(=O)[C@H](Cc2ccccc2)NC(=O)[C@H](CCC(=O)O)NC(=O)[C@H]([C@@H](C)O)NC(=O)[C@@H]2CCCN2C(=O)[C@@H]2CCCN2C1=O (some centres unmarked) [3BP-4775] ({X1-Suc}-[Nle]CPPTEF[ξC]-OH; linker 2-8 via Pyridine(3,5-bisCH2)) ?
Reply | 0.18 %ID/g

Ask | Would you kindly repeat that for CCCC[C@H](NC(=O)CCC(=O)NCCCOCCOCCOCCCNC(=O)CN1CCN(C(=O)C(CNCCN)CNCCN)CC1)C(=O)N[C@H]1CSCc2cccc(c2)CSCC(C(=O)O)NC(=O)[C@H](Cc2ccccc2)NC(=O)[C@H](CCC(N)=O)NC(=O)[C@H]([C@@H](C)O)NC(=O)[C@@H]2CCCN2C(=O)[C@@H]2CCCN2C1=O (some centres unmarked) [3BP-4541] ?
Reply | 0.2 %ID/g

Ask | Would you kindly repeat that for CCCC[C@H](NC(=O)CCC(=O)NCCCOCCOCCOCCCNC(=O)CCOCCOCCOCCOCCOCCOCCNC(=O)C(CNCCN)CNCCN)C(=O)N[C@H]1CSCc2cccc(c2)CSCC(C(=O)O)NC(=O)[C@H](Cc2ccccc2)NC(=O)[C@H](CCC(N)=O)NC(=O)[C@H]([C@@H](C)O)NC(=O)[C@@H]2CCCN2C(=O)[C@@H]2CCCN2C1=O (some centres unmarked) [3BP-4552] ?
Reply | 0.14 %ID/g

Ask | Would you kindly repeat that for CCCCNC(=O)N[C@H]1CSCc2cc(CSCCNC(=O)C(CNCCN)CNCCN)cc(c2)CSC[C@@H](C(=O)O)NC(=O)[C@H](Cc2ccccc2)NC(=O)[C@H](CCC(N)=O)NC(=O)[C@H]([C@@H](C)O)NC(=O)[C@@H]2CCCN2C(=O)[C@@H]2CCCN2C1=O [3BP-4534] ?
Reply | 1.19 %ID/g

---

Provide the recorded tissue uptake at 3 h for the entries that follow.
Test: in vivo
Settings: swiss nude, mouse, blood pool surrogate (BPS), iv
Numbered stars: 1 amine (or outer) side, 2 acyl side, 3 side chain; on linkers, the order of the positions; unused ones are H or OH. Bridge positions count the residues as written; N and C are the ends. Square brackets hold non-standard residues; d marks the D form. Peptide text beside a SMILES is read from it. * marks the point of attachment. X6 = NCCNCC(CNCCN)C(=O)NCCOCCOCCOCCOCCOCCOCCC(=O)NCCCOCCOCCOCCCN*; X1 = NCCNCC(CNCCN)C(=O)N1CCN(CC(=O)NCCCOCCOCCOCCCN*)CC1; mXylylene = c1cc(C[*:1])cc(C[*:2])c1; Suc = O=C(CCC(=O)[*:2])[*:1]; Nle = CCCC[C@H](N)C(=O)O
The response must be a number in %ID/g with no trailing unit.

Ask | Query: tissue uptake at 3 h; subject: CCCC[C@H](NC(=O)CCC(=O)NCCCOCCOCCOCCCNC(=O)CN1CCN(C(=O)C(CNCCN)CNCCN)CC1)C(=O)N[C@H]1CSCc2cccc(c2)CSC[C@@H](C(=O)N[C@@H](CC(=O)O)C(=O)O)NC(=O)[C@H](Cc2ccccc2)NC(=O)[C@H](CCC(=O)O)NC(=O)[C@H]([C@@H](C)O)NC(=O)[C@@H]2CCCN2C(=O)[C@@H]2CCCN2C1=O [3BP-4785] ({X1-Suc}-[Nle]CPPTEFCD-OH; linker 2-8 via mXylylene)
Reply | 0.64

Ask | Would you kindly repeat that for CCCC[C@H](NC(=O)CCC(=O)NCCCOCCOCCOCCCNC(=O)CCOCCOCCOCCOCCOCCOCCNC(=O)C(CNCCN)CNCCN)C(=O)N[C@H]1CSCc2cccc(c2)CSC[C@@H](C(=O)O)NC(=O)[C@H](Cc2ccccc2)NC(=O)[C@H](CCC(=O)O)NC(=O)[C@H]([C@@H](C)O)NC(=O)[C@@H]2CCCN2C(=O)[C@@H]2CCCN2C1=O [3BP-4780] ({X6-Suc}-[Nle]CPPTEFC-OH; linker 2-8 via mXylylene) ?
Reply | 0.61

---

Test: in vivo
Conditions: swiss nude, mouse, blood pool surrogate (BPS), iv
Numbered stars: 1 amine (or outer) side, 2 acyl side, 3 side chain; on linkers, the order of the positions; unused ones are H or OH. Bridge positions count the residues as written; N and C are the ends. Square brackets hold non-standard residues; d marks the D form. Peptide text beside a SMILES is read from it. * marks the point of attachment. X1 = NCCNCC(CNCCN)C(=O)N1CCN(CC(=O)NCCCOCCOCCOCCCN*)CC1; mXylylene = c1cc(C[*:1])cc(C[*:2])c1; Suc = O=C(CCC(=O)[*:2])[*:1]; Nle = CCCC[C@H](N)C(=O)O; βAla = NCCC(=O)O
Provide the recorded tissue uptake at 1 h for the entries that follow.
The response must be a number in %ID/g with no trailing unit.

Ask | Query: tissue uptake at 1 h; subject: CCCC[C@H](NC(=O)CCC(=O)NCCCOCCOCCOCCCNC(=O)CN1CCN(C(=O)C(CNCCN)CNCCN)CC1)C(=O)N[C@H]1CSCc2cccc(c2)CSC[C@@H](C(=O)NCCC(=O)O)NC(=O)[C@H](Cc2ccccc2)NC(=O)[C@H](CCC(=O)O)NC(=O)[C@H]([C@@H](C)O)NC(=O)[C@@H]2CCCN2C(=O)[C@@H]2CCCN2C1=O [3BP-4784] ({X1-Suc}-[Nle]CPPTEFC[βAla]-OH; linker 2-8 via mXylylene)
Reply | 0.9

Ask | Would you kindly repeat that for CCCCNC(=O)N[C@H]1CSCc2cc(CSCCNC(=O)C(CNCCN)CNCCN)cc(c2)CSC[C@@H](C(=O)O)NC(=O)[C@H](Cc2ccccc2)NC(=O)[C@H](CCC(N)=O)NC(=O)[C@H]([C@@H](C)O)NC(=O)[C@@H]2CCCN2C(=O)[C@@H]2CCCN2C1=O ?
Reply | 1.7

Ask | Would you kindly repeat that for CCCC[C@H](NC(=O)CCC(=O)NCCCOCCOCCOCCCNC(=O)CN1CCN(C(=O)C(CNCCN)CNCCN)CC1)C(=O)N[C@H]1CSCc2cncc(c2)CSCC(C(=O)O)NC(=O)[C@H](Cc2ccccc2)NC(=O)[C@H](CCC(N)=O)NC(=O)[C@H]([C@@H](C)O)NC(=O)[C@@H]2CCCN2C(=O)[C@@H]2CCCN2C1=O (stereo partly shown) ?
Reply | 0.08

Ask | Would you kindly repeat that for CCCC[C@H](NC(=O)CCC(=O)NCCCOCCOCCOCCCNC(=O)CN1CCN(C(=O)C(CNCCN)CNCCN)CC1)C(=O)N[C@H]1CSCc2cccc(c2)CSC[C@@H](C(=O)N[C@@H](CC(=O)O)C(=O)O)NC(=O)[C@H](Cc2ccccc2)NC(=O)[C@H](CCC(=O)O)NC(=O)[C@H]([C@@H](C)O)NC(=O)[C@@H]2CCCN2C(=O)[C@@H]2CCCN2C1=O [3BP-4785] ({X1-Suc}-[Nle]CPPTEFCD-OH; linker 2-8 via mXylylene) ?
Reply | 0.92

---

Biological target: Human recombinant FAP (Homo sapiens, UniProt Q12884)
Sequence (Q12884 whole entry): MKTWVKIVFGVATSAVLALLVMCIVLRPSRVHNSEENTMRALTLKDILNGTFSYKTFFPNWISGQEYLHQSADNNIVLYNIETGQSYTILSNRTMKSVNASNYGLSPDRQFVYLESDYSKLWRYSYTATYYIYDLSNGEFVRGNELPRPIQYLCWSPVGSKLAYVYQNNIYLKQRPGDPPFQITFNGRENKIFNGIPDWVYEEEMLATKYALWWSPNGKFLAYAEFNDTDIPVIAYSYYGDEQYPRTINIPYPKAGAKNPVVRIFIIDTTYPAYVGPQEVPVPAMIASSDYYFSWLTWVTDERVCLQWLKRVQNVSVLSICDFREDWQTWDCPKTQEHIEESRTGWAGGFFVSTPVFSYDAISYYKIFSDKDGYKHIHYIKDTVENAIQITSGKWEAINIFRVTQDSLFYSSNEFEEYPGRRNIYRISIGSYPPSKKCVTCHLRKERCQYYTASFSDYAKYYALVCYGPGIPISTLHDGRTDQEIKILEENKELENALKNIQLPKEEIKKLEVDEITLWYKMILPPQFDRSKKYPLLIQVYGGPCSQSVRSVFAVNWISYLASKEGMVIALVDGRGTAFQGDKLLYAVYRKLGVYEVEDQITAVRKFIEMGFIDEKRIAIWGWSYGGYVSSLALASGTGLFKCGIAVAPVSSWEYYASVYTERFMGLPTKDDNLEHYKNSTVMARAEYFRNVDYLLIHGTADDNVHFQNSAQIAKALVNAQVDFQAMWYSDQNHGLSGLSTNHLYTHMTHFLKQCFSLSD
Test: FRET-based FAP protease activity assay
Assay type: biochemical
Design: purchased R&D systems 3715-SE
Conditions: pIC50 Category (Activity), FRET-based FAP protease activity assay, recombinant human FAP, 37° C.
pIC50: −log10 of the molar value. Numbered stars: 1 amine (or outer) side, 2 acyl side, 3 side chain; on linkers, the order of the positions; unused ones are H or OH. Bridge positions count the residues as written; N and C are the ends. Square brackets hold non-standard residues; d marks the D form. Peptide text beside a SMILES is read from it. Oic = O=C(O)[C@@H]1C[C@@H]2CCCC[C@@H]2N1; mXylylene = c1cc(C[*:1])cc(C[*:2])c1
Provide the recorded pIC50 for the entries that follow.

Ask | Query: pIC50; subject: CCCCCC(=O)N[C@H]1CSCc2cccc(c2)CSC[C@@H](C(N)=O)NC(=O)[C@H](Cc2ccccc2C(F)(F)F)NC(=O)[C@H](CCC(N)=O)NC(=O)[C@H]([C@@H](C)O)NC(=O)[C@@H]2CCCN2C(=O)[C@@H]2CCCN2C1=O [3BP-3409]
Reply | > 8.00

Ask | Would you kindly repeat that for CSCC[C@H](NC(C)=O)C(=O)N[C@H]1CSCc2cccc(c2)CSC[C@@H](C(=O)N[C@@H](CC(=O)O)C(=O)N[C@@H](Cc2c[nH]cn2)C(=O)N[C@@H](Cc2ccccc2)C(=O)N[C@@H](CCCNC(=N)N)C(=O)N[C@@H](CC(=O)O)C(N)=O)NC(=O)[C@H](Cc2ccccc2)NC(=O)[C@H](CCC(=O)O)NC(=O)[C@H]([C@@H](C)O)NC(=O)[C@@H]2CCCN2C(=O)[C@@H]2C[C@@H]3CCCC[C@@H]3N2C1=O [3BP-3216] (Ac-MC[Oic]PTEFCDHFRD-NH2; linker 2-8 via mXylylene) ?
Reply | 6.10 to 7.00
